Collected koff values appear next to each entry.
Target: T1, human Protein S (human, UniProt P07225 42-676)
T1 construct: also called ProS; ProS1
T1 sequence: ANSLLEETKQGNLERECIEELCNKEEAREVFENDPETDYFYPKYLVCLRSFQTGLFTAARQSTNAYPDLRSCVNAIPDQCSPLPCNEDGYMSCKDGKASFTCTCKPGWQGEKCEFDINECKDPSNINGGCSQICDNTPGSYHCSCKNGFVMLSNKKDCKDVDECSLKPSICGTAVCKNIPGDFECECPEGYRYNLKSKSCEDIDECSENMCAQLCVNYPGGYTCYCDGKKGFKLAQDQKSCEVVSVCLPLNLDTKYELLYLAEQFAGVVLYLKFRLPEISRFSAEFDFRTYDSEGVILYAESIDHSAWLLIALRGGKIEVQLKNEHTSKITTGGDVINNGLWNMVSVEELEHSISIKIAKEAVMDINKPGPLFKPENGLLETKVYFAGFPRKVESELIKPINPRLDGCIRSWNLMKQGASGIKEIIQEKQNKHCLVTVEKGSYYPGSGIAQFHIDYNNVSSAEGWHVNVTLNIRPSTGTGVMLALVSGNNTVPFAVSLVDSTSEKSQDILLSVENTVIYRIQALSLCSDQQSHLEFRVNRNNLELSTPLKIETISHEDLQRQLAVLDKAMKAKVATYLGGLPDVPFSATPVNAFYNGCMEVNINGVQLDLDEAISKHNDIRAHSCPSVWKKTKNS
Assay: BLI Octet; antibody on anti-human Fc probe; Protein S 7.81-500 nM; 4 mM CaCl2
Measurement Name: koff (s⁻¹)

INSERT INTO assay_data (binder, unit_annotation, value_observed) VALUES
  ('Antibody 11 (antibody, V domains shown, Same variable regions as Antibody 23) VH: QVQLVQSGAEVKKPGASVKVSCKSSGHTFTGYYMHWVRQAPGQGLEWMGWINPNSGDTNYAQKFQGRVTMTRDTSISTAYMEMSRLRSDDTAVYYCARDSQILWFGELGYWGQGTLVTVSS VL: QAVVTQESALTTSPGETVTLTCRSSTGAVTASNYANWVQEKPDHLFTGLIGSTNNRAPGVPARFSGSLIGDKAALTITGAQTEDEAIYFCALWYSDHFVFGGGTKLTVL', 's⁻¹', '3.4e-05'),
  ('Antibody 30 (antibody, V domains shown, Same variable regions as Antibody 36) VH: EVQLVESGGGLVKPGGSLRLSCAASGFTFSSYNMNWVRQAPGRGLDWVSSISSSSSYIYYADSVKGRFTISRDNAKNSLYLQMNTLRAEDTAVYYCARDEEWELLTGFDYWGQGTLVTVSS VL: DIQMTQSPSSLSASVGDRVTITCRASQGINNYLAWFQQKPGKAPKSLIYAASNLQSGVPLKFSGSGSGTDFTLTISSLQPEDFATYYCQQYNSYPITFGQGTRLEIK', 's⁻¹', 0.000279),
  ('Antibody 27 (antibody, V domains shown, Same variable regions as Antibody 33) VH: QVQLQQSGPGLVKPSQTLSLTCAISGDSVSNNNAAWNWIRQSPSRGLEWLGGTYYRSKWYNDYAVSVKSRIIINPVTSKNQFSLQLNSVTPEDTAVYYCARGSSWYRFFDYWGQGTLVTVSS VL: EIVLTQSPGTLSLSPGERATLSCRASQSVGSSYLAWYQQKPGQAPRLLISGASGRATGIPDRFSGSGSGTDFTLTISRLEPEDFTVYYCQQYGSSPYTFGQGTKLEIK', 's⁻¹', 0.000159);
